Origin of values: patent US20210371518A1

biological target: LILRA5 (human (not printed on the sheet), UniProt A6NI73); test: LILR reporter cells on coated antibody, GFP positive (%)
Sequence (A6NI73 42-268 limits assumed): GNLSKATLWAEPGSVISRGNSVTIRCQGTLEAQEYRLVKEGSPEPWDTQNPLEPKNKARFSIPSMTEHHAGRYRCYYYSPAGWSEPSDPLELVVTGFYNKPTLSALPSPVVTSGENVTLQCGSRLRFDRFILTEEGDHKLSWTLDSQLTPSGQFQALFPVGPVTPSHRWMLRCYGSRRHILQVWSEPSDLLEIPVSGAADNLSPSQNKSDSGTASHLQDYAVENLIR

| binder | binding result |
| --- | --- |
| h193 antibody No. 32 (h193-H6 / h193-K2) (antibody, V domains shown) VH: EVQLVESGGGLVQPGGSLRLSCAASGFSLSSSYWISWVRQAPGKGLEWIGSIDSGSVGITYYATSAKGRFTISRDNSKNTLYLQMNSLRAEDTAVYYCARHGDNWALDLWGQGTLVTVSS VL: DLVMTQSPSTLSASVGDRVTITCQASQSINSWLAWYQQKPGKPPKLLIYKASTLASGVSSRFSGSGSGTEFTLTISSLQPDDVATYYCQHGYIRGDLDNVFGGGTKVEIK | no binding |
| h193 antibody No. 36 (h193-H7 / h193-K2) (antibody, V domains shown) VH: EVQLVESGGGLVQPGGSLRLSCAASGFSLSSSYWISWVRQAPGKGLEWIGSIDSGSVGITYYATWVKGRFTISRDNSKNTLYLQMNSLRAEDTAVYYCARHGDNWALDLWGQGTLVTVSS VL: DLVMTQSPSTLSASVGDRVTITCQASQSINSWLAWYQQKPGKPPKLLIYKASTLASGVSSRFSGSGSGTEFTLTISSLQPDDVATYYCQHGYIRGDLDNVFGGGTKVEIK | no binding |
| h193 antibody No. 35 (h193-H7 / h193-K1) (antibody, V domains shown) VH: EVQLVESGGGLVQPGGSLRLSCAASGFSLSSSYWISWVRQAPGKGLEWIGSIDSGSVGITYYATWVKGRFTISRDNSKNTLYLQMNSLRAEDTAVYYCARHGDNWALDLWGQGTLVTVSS VL: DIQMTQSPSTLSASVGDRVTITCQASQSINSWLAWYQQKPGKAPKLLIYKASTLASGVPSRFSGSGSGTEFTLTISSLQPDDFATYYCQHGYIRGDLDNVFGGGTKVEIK | no binding |
